IC50, IL4 production, T-cell activation assay, donor 3 by entry:
Biological target: T1, full length human OX40L expressed on CHO cells (human, UniProt P23510 1-183)
T1 sequence: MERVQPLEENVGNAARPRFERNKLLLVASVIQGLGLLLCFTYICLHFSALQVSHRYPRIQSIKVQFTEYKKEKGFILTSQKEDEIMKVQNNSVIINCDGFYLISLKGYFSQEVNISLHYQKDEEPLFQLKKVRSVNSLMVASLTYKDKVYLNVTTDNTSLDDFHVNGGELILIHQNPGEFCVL
Assay: cell-based or functional assay
# unit: nM | format: bare number

Please review the entries below; each comes with its answer.
BINDER	RESULT_VALUE
OX40L18E09 (VHH, monovalent Nanobody from E. coli; not shown: C-terminal c-myc and His6 tag) VHH: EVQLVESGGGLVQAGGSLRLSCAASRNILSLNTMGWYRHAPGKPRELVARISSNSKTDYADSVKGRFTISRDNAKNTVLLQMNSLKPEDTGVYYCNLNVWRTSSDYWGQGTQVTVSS	36
OX40L15B07 (VHH, monovalent Nanobody from E. coli; not shown: C-terminal c-myc and His6 tag) VHH: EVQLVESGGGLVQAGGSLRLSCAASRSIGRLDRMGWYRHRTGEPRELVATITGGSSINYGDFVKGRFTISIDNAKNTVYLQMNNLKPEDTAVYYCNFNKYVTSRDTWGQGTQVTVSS	73

Attention now turns to another entry.
Recorded IC50, IL4 production, T-cell activation assay, donor 3 of OX40L01E07 (VHH, monovalent Nanobody from E. coli; not shown: C-terminal c-myc and His6 tag) VHH: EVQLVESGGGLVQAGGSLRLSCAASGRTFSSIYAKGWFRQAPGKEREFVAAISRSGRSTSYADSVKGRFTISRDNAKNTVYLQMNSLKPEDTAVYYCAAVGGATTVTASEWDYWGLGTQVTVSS , please.
125
